Data provenance: patent US7101878B1

We begin with a simple list: items and their reported IC50.
Biological target: rat GnRH receptor (Rattus norvegicus)
Sequence (P30969 whole entry): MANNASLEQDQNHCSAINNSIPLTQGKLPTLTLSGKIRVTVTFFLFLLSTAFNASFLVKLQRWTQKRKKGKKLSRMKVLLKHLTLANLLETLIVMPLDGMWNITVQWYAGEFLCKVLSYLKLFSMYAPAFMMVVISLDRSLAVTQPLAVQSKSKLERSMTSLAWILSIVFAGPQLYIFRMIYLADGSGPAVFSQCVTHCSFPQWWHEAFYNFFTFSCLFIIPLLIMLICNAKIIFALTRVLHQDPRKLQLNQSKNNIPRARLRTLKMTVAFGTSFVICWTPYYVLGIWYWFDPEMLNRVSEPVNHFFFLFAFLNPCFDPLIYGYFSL
Assay: Radioligand binding, 125I-GnRH-A, rat pituitary membranes
Parameters: membranes were prepared from rat pituitary; from tissue; host or cells: rat pituitary
Details: read-out: rGnRH IC50
Description: All compounds were diluted in 1% DMSO (final assay concentration) in binding assay buffer. […] Reactions were terminated by rapid filtration onto 96-well Packard GF/C filters soaked in 0.1% polyethyleneimine. Filters were washed three times with PBS buffer, dried and counted on a Packard Topcount by liquid scintillation counting. […] The reaction mixture was vortexed and incubated for 1 min at room temperature. […] Fractions were assessed for biological activity by radioligand binding.
readout-kind: IC50 (nM)

>  <compound>
Cc1cccc(CNC(=O)c2ccc(Cc3cc4c(cc3C)C(C)(C)CCC4(C)C)o2)c1

>  <recorded-measurement>
210

$$$$
>  <compound>
Cc1cnc(CNC(=O)c2ccc(Cc3cc4c(cc3C)C(C)(C)CCC4(C)C)o2)cn1

>  <recorded-measurement>
60

$$$$
>  <compound>
COc1cc(OC)c(NC(=O)c2ccc(Cc3cc4c(cc3C)C(C)(C)CCC4(C)C)o2)c(OC)c1C#N

>  <recorded-measurement>
5.7

$$$$
>  <compound>
Cc1cc2c(cc1Cc1ccc(C(=O)NCc3cccc(CN)c3)o1)C(C)(C)CCC2(C)C

>  <recorded-measurement>
113

$$$$
>  <compound>
Cc1cc2c(cc1Cc1ccc(C(=O)NCc3ccc(CNC(=O)C(F)(F)F)cc3)o1)C(C)(C)CCC2(C)C

>  <recorded-measurement>
1260

$$$$
>  <compound>
COc1cc(C)c(Cl)c(C)c1Cc1ccc(C(=O)Nc2c(OC)cccc2OC)o1

>  <recorded-measurement>
51

$$$$
>  <compound>
Cc1ccc(CNC(=O)c2ccc(Cc3cc4c(cc3C)C(C)(C)CCC4(C)C)o2)cc1

>  <recorded-measurement>
60

$$$$
>  <compound>
Cc1cc2c(cc1Cc1ccc(C(=O)N3CCC(Nc4nccc(NCC5CCCO5)n4)CC3)o1)C(C)(C)CCC2(C)C (stereo not drawn)

>  <recorded-measurement>
1580

$$$$
>  <compound>
Cc1cc2c(cc1Cc1ccc(C(=O)NCc3cccc(CNc4nccc(NCC5CCCO5)n4)c3)o1)C(C)(C)CCC2(C)C (stereo not drawn)

>  <recorded-measurement>
6

$$$$
>  <compound>
Cc1cc2c(cc1Cc1ccc(C(=O)NCC3CCC(CNc4ncccn4)CC3)o1)C(C)(C)CCC2(C)C (stereo not drawn)

>  <recorded-measurement>
1740

$$$$
>  <compound>
Cc1cc2c(cc1Cc1ccc(C(=O)NCC3CCN(c4ccnc(Cl)n4)CC3)o1)C(C)(C)CCC2(C)C

>  <recorded-measurement>
3460

$$$$
>  <compound>
COc1cc(OC)c(NC(=O)c2ccc(Cc3cc4c(cc3OC)C(C)(C)CCC4(C)C)o2)c(OC)c1

>  <recorded-measurement>
7

$$$$
>  <compound>
CCc1cccc(CC)c1NC(=O)c1ccc(Cc2cc3c(cc2C)C(C)(C)CCC3(C)C)o1

>  <recorded-measurement>
510

$$$$
>  <compound>
CCC(C)(C)c1ccc(OC)c(Cc2ccc(C(=O)Nc3c(OC)cccc3OC)o2)c1

>  <recorded-measurement>
51

$$$$
>  <compound>
Cc1cc2c(cc1Cc1ccc(C(=O)NCc3cccc(C)c3C)o1)C(C)(C)CCC2(C)C

>  <recorded-measurement>
30

$$$$

* * *

# key: entry, value: remaining activity at 10 µM
molecular target: mouse GnRH receptor (Mus musculus); construct: expressed in transfected cells; host or cells: 293 cells; assay: Radioligand binding, 125I-GnRH-A, 293 cells expressing mouse GnRH receptors; conditions: 1 h, substrate remaining; 10 uM compound; closer to zero = closer to 100% inhibition; read-out: S%R 10 uM mGnRHR

>  <compound>
Cc1cc2c(cc1Cc1ccc(C(=O)NCCSCCO)o1)C(C)(C)CCC2(C)C [Compound 561]

>  <tgt>
mouse GnRH receptor (Mus musculus)

>  <result-units>
%

>  <remaining activity at 10 µM>
0

$$$$
>  <compound>
Cc1cc2c(cc1Cc1ccc(C(=O)NCC(=O)Nc3ccc([N+](=O)[O-])cc3)o1)C(C)(C)CCC2(C)C [Compound 464]

>  <tgt>
mouse GnRH receptor (Mus musculus)

>  <result-units>
%

>  <remaining activity at 10 µM>
7

$$$$
>  <compound>
CSCCNC(=O)c1ccc(Cc2cc3c(cc2C)C(C)(C)CCC3(C)C)o1 [Compound 648]

>  <tgt>
mouse GnRH receptor (Mus musculus)

>  <result-units>
%

>  <remaining activity at 10 µM>
4

$$$$
>  <compound>
Cc1cc2c(cc1Cc1ccc(C(=O)N3CCN(c4cccc(NCC5CCCO5)n4)CC3)o1)C(C)(C)CCC2(C)C (stereo not shown) [Compound 480]

>  <tgt>
mouse GnRH receptor (Mus musculus)

>  <result-units>
%

>  <remaining activity at 10 µM>
-2

$$$$

* * *

molecular target: mouse GnRH receptor (Mus musculus, UniProt Q01776); construct: expressed in transfected cells; host or cells: 293 cells; test: Radioligand binding, 125I-GnRH-A, 293 cells expressing mouse GnRH receptors; settings: 10 uM; read-out: % Inhib. @ 10 uM mGnRH
Sequence (Q01776 whole entry): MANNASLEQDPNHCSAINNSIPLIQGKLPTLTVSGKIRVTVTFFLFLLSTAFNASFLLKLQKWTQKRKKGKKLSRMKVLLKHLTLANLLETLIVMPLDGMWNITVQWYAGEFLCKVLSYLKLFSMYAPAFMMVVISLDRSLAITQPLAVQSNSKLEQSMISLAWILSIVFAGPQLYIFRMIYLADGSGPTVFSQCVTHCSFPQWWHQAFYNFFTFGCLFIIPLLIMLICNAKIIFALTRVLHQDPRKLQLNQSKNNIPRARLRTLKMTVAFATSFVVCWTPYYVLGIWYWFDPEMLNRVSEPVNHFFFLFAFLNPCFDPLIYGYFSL
# reported inhibition at 10 µM; entries follow

>  <compound>
Cc1cc2c(cc1Cc1ccc(C(=O)N3CCCCC3CO)o1)C(C)(C)CCC2(C)C (centres unmarked)

>  <tgt>
mouse GnRH receptor (Mus musculus, UniProt Q01776)

>  <inhibition at 10 µM [%]>
84

$$$$
>  <compound>
Cc1cc2c(cc1Cc1ccc(C(=O)NC(C)(C)C)o1)C(C)(C)CCC2(C)C [drawing 1450]

>  <tgt>
mouse GnRH receptor (Mus musculus, UniProt Q01776)

>  <inhibition at 10 µM [%]>
72

$$$$
>  <compound>
Cc1cc2c(cc1Cc1ccc(C(=O)N3CCC3)o1)C(C)(C)CCC2(C)C

>  <tgt>
mouse GnRH receptor (Mus musculus, UniProt Q01776)

>  <inhibition at 10 µM [%]>
63

$$$$
>  <compound>
CCN(CC)CCCC(C)NC(=O)c1ccc(Cc2cc3c(cc2C)C(C)(C)CCC3(C)C)o1 (centres unmarked)

>  <tgt>
mouse GnRH receptor (Mus musculus, UniProt Q01776)

>  <inhibition at 10 µM [%]>
99

$$$$
>  <compound>
CCCN(CC1CC1)C(=O)c1ccc(Cc2cc3c(cc2C)C(C)(C)CCC3(C)C)o1

>  <tgt>
mouse GnRH receptor (Mus musculus, UniProt Q01776)

>  <inhibition at 10 µM [%]>
96

$$$$
>  <compound>
Cc1cc2c(cc1Cc1ccc(C(=O)N3CCc4[nH]c5c(F)cccc5c4C3)o1)C(C)(C)CCC2(C)C

>  <tgt>
mouse GnRH receptor (Mus musculus, UniProt Q01776)

>  <inhibition at 10 µM [%]>
46

$$$$
>  <compound>
COc1cccc(N2CCN(C(=O)c3ccc(Cc4cc5c(cc4C)C(C)(C)CCC5(C)C)o3)CC2C)c1 (centres unmarked) [drawing 1513]

>  <tgt>
mouse GnRH receptor (Mus musculus, UniProt Q01776)

>  <inhibition at 10 µM [%]>
76

$$$$
>  <compound>
Cc1cc2c(cc1Cc1ccc(C(=O)N(Cc3cccnc3)Cc3cccn3C)o1)C(C)(C)CCC2(C)C [drawing 1285]

>  <tgt>
mouse GnRH receptor (Mus musculus, UniProt Q01776)

>  <inhibition at 10 µM [%]>
100

$$$$
>  <compound>
Cc1cc2c(cc1Cc1ccc(C(=O)N(Cc3ccsc3)C3CCN(Cc4ccccc4)C3)o1)C(C)(C)CCC2(C)C (centres unmarked) [drawing 1560]

>  <tgt>
mouse GnRH receptor (Mus musculus, UniProt Q01776)

>  <inhibition at 10 µM [%]>
91

$$$$
>  <compound>
COc1ccccc1N1CCN(C(=O)c2ccc(Cc3cc4c(cc3C)C(C)(C)CCC4(C)C)o2)CC1 [drawing 1421]

>  <tgt>
mouse GnRH receptor (Mus musculus, UniProt Q01776)

>  <inhibition at 10 µM [%]>
73

$$$$
>  <compound>
CCN(CC)CCCN(CCCN(CC)CC)C(=O)c1ccc(Cc2cc3c(cc2C)C(C)(C)CCC3(C)C)o1

>  <tgt>
mouse GnRH receptor (Mus musculus, UniProt Q01776)

>  <inhibition at 10 µM [%]>
69

$$$$
>  <compound>
CCN1CCCC1CNC(=O)c1ccc(Cc2cc3c(cc2C)C(C)(C)CCC3(C)C)o1 (centres unmarked)

>  <tgt>
mouse GnRH receptor (Mus musculus, UniProt Q01776)

>  <inhibition at 10 µM [%]>
96

$$$$
>  <compound>
Cc1cc2c(cc1Cc1ccc(C(=O)N(C)CCC#N)o1)C(C)(C)CCC2(C)C [drawing 1531]

>  <tgt>
mouse GnRH receptor (Mus musculus, UniProt Q01776)

>  <inhibition at 10 µM [%]>
83

$$$$
>  <compound>
CCCCN(C(=O)c1ccc(Cc2cc3c(cc2C)C(C)(C)CCC3(C)C)o1)C(C)c1ccccc1 (centres unmarked) [drawing 1275]

>  <tgt>
mouse GnRH receptor (Mus musculus, UniProt Q01776)

>  <inhibition at 10 µM [%]>
65

$$$$
>  <compound>
Cc1cc2c(cc1Cc1ccc(C(=O)N(Cc3ccccc3)[C@@H](C)c3ccccc3)o1)C(C)(C)CCC2(C)C [drawing 1542]

>  <tgt>
mouse GnRH receptor (Mus musculus, UniProt Q01776)

>  <inhibition at 10 µM [%]>
46

$$$$
>  <compound>
Cc1cc2c(cc1Cc1ccc(C(=O)N3CCCC(C(N)=O)C3)o1)C(C)(C)CCC2(C)C (centres unmarked)

>  <tgt>
mouse GnRH receptor (Mus musculus, UniProt Q01776)

>  <inhibition at 10 µM [%]>
69

$$$$
>  <compound>
Cc1cc2c(cc1Cc1ccc(C(=O)N3CCN(CCOCCO)CC3)o1)C(C)(C)CCC2(C)C [drawing 1252]

>  <tgt>
mouse GnRH receptor (Mus musculus, UniProt Q01776)

>  <inhibition at 10 µM [%]>
63

$$$$
